experiment: Elimination half life in Sprague-Dawley rat at 19 mg/kg, po as suspension with hydroxypropylmethylcellulose; type: ADME, organism-based; set-up: dose 19 mg/kg, route oral; details: in vivo, read-out: beta t1/2
QUANTITY MEASURED: half-life

[in] Given the entry O=C(c1ccc(F)cc1)N1CCN2C(=O)c3ccncc3C12c1ccc(Cl)cc1 (racemic) , report its measured half-life.
[out] > 24 h

====

assay: Oral bioavailability in Sprague-Dawley rat at 22 mg/kg as suspension with hydroxypropylmethylcellulose; assay type: ADME, organism-based; details: in vivo
QUANTITY MEASURED: bioavailability (%)
Use % as the unit, but write only the number.

[in] Given the entry O=C(c1ccc(F)cc1)N1CCN2C(=O)c3ccccc3C12c1ccc(Cl)cc1 (racemic) , report its measured bioavailability.
[out] 15

====

test: Lipophilicity, log D of the compound in octanol saturated mobile phase at pH 7.4 by chromatographic method; assay type: physicochemical
QUANTITY MEASURED: chromatographic logD
Returns: the value as a bare number; no unit string appended.

Consider the worked cases shown below.
O=C(c1ccc(F)cc1)N1CCN2C(=O)c3ccncc3C12c1ccc(Cl)cc1 (racemic)
2.8
O=C(c1ccc(F)cc1)N1CCN2C(=O)c3cc[n+]([O-])cc3C12c1ccc(Cl)cc1 (racemic)
2.3

Moving on to another compound below.
[in] Given the entry O=C(c1ccc(F)cc1)N1CCN2C(=O)c3ccccc3C12c1ccc(Cl)cc1 (racemic) , report its measured chromatographic logD.
[out] 4

====

experiment: Apparent volume of distribution in Sprague-Dawley rat at 2.0 mg/kg, iv in 0.1 M capsitol and 10 to 12.5 % DMSO; conditions: in vivo, read-out: Vz
QUANTITY MEASURED: Vd (L/kg)
Use L/kg as the unit, but write only the number.

[in] Given the entry O=C(c1ccc(F)cc1)N1CCN2C(=O)c3ccncc3C12c1ccc(Cl)cc1 (racemic) , report its measured Vd.
[out] 6

====

assay: Cytotoxicity against human Hep2 cells after 5 days by MTT assay; assay type: cell-based, HEp-2
Quick reference: CC50 at 120 h of the listed items.

Consider the worked cases shown below.
COCCOc1ccc(C23c4ccccc4C(=O)N2CCN3C(=O)c2ccc(F)cc2)cc1 (racemic)
> 16 µM
O=C(c1ccc(F)cc1)N1CCN2C(=O)c3cccnc3C12c1ccc(Cl)cc1 (racemic)
> 20 µM
COc1ccc(C23c4ccccc4C(=O)N2CCN3C(=O)c2ccc(F)cc2)cc1 (racemic)
> 20 µM
O=C(c1ccc(F)cc1)N1CCN2C(=O)c3ccccc3C12c1ccc(Cl)cc1 (racemic)
> 20 µM
O=C(c1ccc(F)cc1)N1CCN2C(=O)c3ccccc3C12 (racemic)
> 20 µM
COc1ccc(C(=O)N2CCN3C(=O)c4ccccc4C23c2ccc(Cl)cc2)cc1 (racemic)
16 µM

[in] Given the entry N#CCOc1cccc(C23c4ccccc4C(=O)N2CCN3C(=O)c2ccc(F)cc2)c1 (racemic) , report its measured CC50 at 120 h.
[out] > 17 µM

[in] Also O=C1c2ccccc2C2(c3ccc(Cl)cc3)N(Cc3ccc(F)cc3)CCN12 (racemic) ?
[out] 16 µM

[in] Also O=C1c2ccccc2C2(c3ccc(Cl)cc3)NCCN12 (racemic) ?
[out] > 70 µM

[in] Also O=C(NCc1ccc(F)cc1)N1CCN2C(=O)c3ccccc3C12c1ccc(Cl)cc1 (racemic) ?
[out] 10 µM

[in] Also O=C(c1ccc(F)cc1)N1CCN2C(=O)c3ccccc3C12c1cccnc1 (racemic) ?
[out] > 20 µM

[in] Also COc1ccc(NC(=O)N2CCN3C(=O)c4ccccc4C23c2ccc(Cl)cc2)cc1 (racemic) ?
[out] > 20 µM

[in] Also O=C(c1ccc(F)cc1)N1CCN2C(=O)c3cc[n+]([O-])cc3C12c1ccc(Cl)cc1 (racemic) ?
[out] > 47 µM

[in] Also O=C(Nc1ccccc1)N1CCN2C(=O)c3ccccc3C12c1ccc(Cl)cc1 (racemic) ?
[out] > 20 µM

[in] Also CCOc1ccc(C23c4ccccc4C(=O)N2CCN3C(=O)c2ccc(F)cc2)cc1 (racemic) ?
[out] > 20 µM

[in] Also O=C(c1ccc(F)cc1)N1CCN2C(=O)c3ncccc3C12c1ccc(Cl)cc1 (racemic) ?
[out] > 20 µM

[in] Also O=C(c1ccc(C(F)(F)F)cc1)N1CCN2C(=O)c3ccccc3C12c1ccc(Cl)cc1 (racemic) ?
[out] 17 µM

[in] Also N#CCC(=O)N1CCN2C(=O)c3ccccc3C12c1ccc(Cl)cc1 (racemic) ?
[out] > 21 µM

[in] Also O=C(c1ccc(F)cc1)N1CCN2C(=O)c3ccccc3C12c1ccccn1 (racemic) ?
[out] > 20 µM

[in] Also O=C(c1ccc(Cl)cc1)N1CCN2C(=O)c3ccccc3C12c1ccc(Cl)cc1 (racemic) ?
[out] 17 µM

[in] Also Cc1ccc(C(=O)N2CCN3C(=O)c4ccccc4C23c2ccc(Cl)cc2)cc1 (racemic) ?
[out] 17 µM

[in] Also N#CCOc1ccc(C23c4ccccc4C(=O)N2CCN3C(=O)c2ccc(F)cc2)cc1 (racemic) ?
[out] > 17 µM

[in] Also O=C(CC1CCCCC1)N1CCN2C(=O)c3ccccc3C12c1ccc(Cl)cc1 (racemic) ?
[out] 14 µM

[in] Also O=C(c1ccc(F)cc1)N1CCN2C(=O)c3ccccc3C12c1cccc(Cl)c1 (racemic) ?
[out] > 18 µM

[in] Also O=C(c1ccco1)N1CCN2C(=O)c3ccccc3C12c1ccc(Cl)cc1 (racemic) ?
[out] 12 µM

[in] Also CC(C)Oc1ccc(C23c4ccccc4C(=O)N2CCN3C(=O)c2ccc(F)cc2)cc1 (racemic) ?
[out] > 20 µM

[in] Also O=C1c2ccccc2C2(c3ccc(Cl)cc3)N1CCN2C(=O)C1CC1 (racemic) ?
[out] > 21 µM

[in] Also COC(=O)COc1ccc(C23c4ccccc4C(=O)N2CCN3C(=O)c2ccc(F)cc2)cc1 (racemic) ?
[out] > 16 µM

[in] Also O=C(c1ccc(F)cc1)N1CCN2C(=O)c3nccnc3C12c1ccc(Cl)cc1 (racemic) ?
[out] > 18 µM

[in] Also CCCc1ccc(C23c4ccccc4C(=O)N2CCN3C(=O)c2ccc(F)cc2)cc1 (racemic) ?
[out] 18 µM

====

assay: Apparent volume of distribution in Sprague-Dawley rat at 2.0 mg/kg, iv as solution in 5% glucose and 10% DMSO; conditions: in vivo, read-out: Vz
QUANTITY MEASURED: Vd (L/kg)
Use L/kg as the unit, but write only the number.

[in] Given the entry O=C(c1ccc(F)cc1)N1CCN2C(=O)c3cc[n+]([O-])cc3C12c1ccc(Cl)cc1 (racemic) , report its measured Vd.
[out] 1.3

====

experiment: Cytotoxicity against human Hep2 cells after 5 days by MTT assay; assay type: cell-based, HEp-2
Quick reference: CC50 at 120 h of the listed items.

[in] Given the entry O=C(c1ccc(F)cc1)N1CCN2C(=O)c3ccccc3C12c1ccccc1 (racemic) , report its measured CC50 at 120 h.
[out] > 20 µM

[in] Also O=C(c1ccc(OC(F)(F)F)cc1)N1CCN2C(=O)c3ccccc3C12c1ccc(Cl)cc1 (racemic) ?
[out] 5.7 µM

[in] Also O=C(c1ccc(F)cc1)N1CCN2C(=O)c3cnccc3C12c1ccc(Cl)cc1 (racemic) ?
[out] > 18 µM

[in] Also O=C(c1ccc(F)cc1)N1CCN2C(=O)c3ccccc3C12c1ccc(F)cc1 (racemic) ?
[out] > 20 µM

[in] Also O=C(c1ccc(F)cc1)N1CCN2C(=O)c3ccccc3C12c1ccc(O)cc1 (racemic) ?
[out] > 20 µM

====

assay: Elimination half life in Sprague-Dawley rat at 22 mg/kg, po as suspension with hydroxypropylmethylcellulose; assay type: ADME, organism-based; design: dose 22 mg/kg, route oral; settings: in vivo, read-out: beta t1/2 (converted)
QUANTITY MEASURED: half-life (h)
Use h as the unit, but write only the number.

[in] Given the entry O=C(c1ccc(F)cc1)N1CCN2C(=O)c3ccccc3C12c1ccc(Cl)cc1 (racemic) , report its measured half-life.
[out] 17

====

assay: Cmax in Sprague-Dawley rat at 22 mg/kg, po as suspension with hydroxypropylmethylcellulose; type: ADME, organism-based; design: dose 22 mg/kg, route oral; details: in vivo
QUANTITY MEASURED: Cmax (nM)
Use nM as the unit, but write only the number.

[in] Given the entry O=C(c1ccc(F)cc1)N1CCN2C(=O)c3ccccc3C12c1ccc(Cl)cc1 (racemic) , report its measured Cmax.
[out] 2000

====

assay: Oral bioavailability in Sprague-Dawley rat at 19 mg/kg as suspension with carboxymethylcellulose; assay type: ADME, organism-based; settings: in vivo, 20 mg/kg, in the assay text read “20 mg/kg” for “19 mg/kg”
QUANTITY MEASURED: bioavailability

[in] Given the entry O=C(c1ccc(F)cc1)N1CCN2C(=O)c3cc[n+]([O-])cc3C12c1ccc(Cl)cc1 (racemic) , report its measured bioavailability.
[out] 89%
